System: MDA-MB-435
runDescription: NCI tumour cell line growth inhibition, 48 h
measuredAttribute: TGI

molecule=Cc1ccc(-n2cnc3c(N)nc(N)nc32)cc1 measuredattribute=TGI measurement="> 100 µM"

Lab note: need TGI with MDA-MB-435 for entry CC(C)(C)[Si](C)(C)O[C@@H](C(=O)OC1C=CCCC1)[C@@H](NC(=O)c1ccccc1)c1ccccc1 (some centres undefined) , please look it up.
> 100 µM

Query TGI on MDA-MB-435 for Cc1cc([C@H](C#N)c2nc3ccccc3[nH]2)nc(Cl)n1
> 100 µM

Param readout = TGI; param system = MDA-MB-435; param query = O=[n+]1c2ccccc2n([O-])c2ccccc21 ; response: value
> 100 µM

Test system MDA-MB-435; read-out TGI; what value for CC(C)=CCC[C@@H](C)C1=C(O)C(O)C(C)=C2N=C(c3ccccc3)C(=O)OC21 (some centres undefined) ?
> 25 µM

// fetch MDA-MB-435 TGI for ClC1(Cl)C(c2ccccc2)C1c1ccccc1 (centres undefined)
68.6 µM

----------
Tested on: SK-OV-3 ovarian
runDescription: NCI tumour cell line growth inhibition, 48 h
Recorded TGI values for a group of compounds are listed next.

compound="O=[N+]([O-])c1cccc(C2N3CCCCC3[C@@H]3c4[nH]c5ccccc5c4CCN23)c1 (stereo partly drawn)" targetentity="SK-OV-3 ovarian" measurement="52.1 µM"
compound=CC(C)(C#N)c1cc(Cn2cncn2)cc(C(C)(C)C#N)c1 targetentity="SK-OV-3 ovarian" measurement="> 10000 µM"

For the compound COc1cc(OC)c(/C=C/S(=O)(=O)Cc2cnc(OC)c(N)c2)c(OC)c1 , what TGI is on record?
> 100 µM

----------
Test system: PC-3 prostate
runDescription: NCI tumour cell line growth inhibition, 48 h
measuredAttribute: TGI

For orientation, consider the following solved cases.
compound=N=c1oc2ccc([N+](=O)[O-])cc2cc1C(=O)NCc1ccccc1 measurement="40.3 µM"
compound=CCN(CC)C(=C(C(Cl)=C(Cl)Cl)[N+](=O)[O-])N(CC)CC measurement="> 100 µM"
compound=CC(=O)[O-].CC(=O)[O-].[Pt+2].c1cscn1.c1cscn1 measurement="> 100 µM"
compound="COc1cc(S(=O)(=O)Nc2nc(-c3ccc(N4C(=O)C(CC(=O)O)SC4c4ccccc4O)cc3)cs2)ccc1Cl (stereo not given)" measurement="> 100 µM"

Consider the record given below.
I am curious: what TGI value has been reported for COc1cc(OCc2nc3ccccc3n3cccc23)cc(OC)c1OC ?
> 100 µM

----------
Test system: BT-549 breast
runDescription: NCI tumour cell line growth inhibition, 48 h
In this section we review reported TGI values for a set of compounds.

Solved cases below.
compound="CC(C)(C)O/C=C1/C(=O)OC2C[C@@H](O[Si](C)(C)C(C)(C)C)CC12 (some centres not stated)" measuredattribute=TGI measurement="> 100 µM"
compound="CCCCCCCCCCCCCCCCCCNc1ccn(C2OC(COP(=O)(O)OC3CC(n4cc(F)c(=O)[nH]c4=O)OC3COP(=O)(O)OCC3OC(n4ccc(N)nc4=O)C(O)C3O)C(O)C2O)c(=O)n1 (configuration not stated)" measuredattribute=TGI measurement="33.4 µM"
compound=O=C1CC(=O)NC(=NN2C(=O)/C(=C/C(=O)c3ccco3)N=C2c2ccccc2)N1 measuredattribute=TGI measurement="> 100 µM"

Requested field: TGI. Item: O=C1C(=O)c2c(oc(=O)c3ccccc23)-c2ccccc21
> 25 µM

Endpoint output: TGI of CCOC(=O)Nc1nc2ccc(Cn3cccc3)cc2[nH]1 . Value?
> 100 µM

Data request, read-out TGI, for CC(C)(C)[Si](C)(C)O[C@@H](C(=O)OC1C=CCCC1)[C@@H](NC(=O)c1ccccc1)c1ccccc1 (some centres not stated)
> 100 µM

----------
System: SNB-19 CNS
runDescription: NCI tumour cell line growth inhibition, 48 h
measuredAttribute: TGI

Examples with their reported TGI follow.
compound="CC(C)=CCC[C@@H](C)C1=C(O)C(O)C(C)=C2N=C(c3ccccc3)C(=O)OC21 (stereo partly specified)" measurement="> 25 µM"
compound="O=C1CC(NC(=O)C(F)(F)F)c2c1csc2Br (stereo unspecified)" measurement="> 100 µM"
compound=CCCCOC(=O)NC(=O)c1cn(CCCOC(=O)CCCCCCCCC(=O)OCCCn2cc(C(=O)NC(=O)OCCCC)c(=O)[nH]c2=O)c(=O)[nH]c1=O measurement="> 100 µM"

So what does the record say about TGI for CC(C)c1ccc(C(=O)Nc2nc3ccc(O)cc3s2)cc1 ?
> 100 µM

Fill in the blank: the reported TGI of Cn1ccnc1CC(C)(O)c1ccccc1 (stereo unspecified) is ____.
> 100 µM

Look up TGI for this compound: CC/C(C)=C1\CCC(CN2CCOCC2)C1=O (stereo unspecified)
> 100 µM

----------
System: CAKI-1 renal
runDescription: NCI tumour cell line growth inhibition, 48 h
Examples of molecules with documented TGI follow.

molecule=ClCc1cccc(Cn2cnc3c(NC45CC6CC(CC(C6)C4)C5)ncnc32)c1 targetentity="CAKI-1 renal" measuredattribute=TGI measurement="33.2 µM"

Reported TGI for CAKI-1 renal, given O=C(O[C@H]1CN[C@H](C#Cc2cc3ncnc(Nc4ccc5c(ccn5Cc5cc(F)ccc5F)c4)c3s2)C1)N1CCOCC1 ?
> 21.7 µM

# returns recorded TGI (system: CAKI-1 renal) for COC(=O)C(C)NP(=O)(N1CC1)N1CC1 (stereo not drawn)
> 100 µM

----------
Examples of compounds with documented TGI follow.
System: K-562 leukemia
runDescription: NCI tumour cell line growth inhibition, 48 h

Known TGI results, listed for orientation:
compound=O=c1c(C=Nc2ccccc2Cl)c(O)n(-c2ccccc2)c(=O)n1-c1ccccc1 targetentity="K-562 leukemia" measuredattribute=TGI measurement="> 100 µM"
compound="CC(=O)Nc1ccc(C(=O)NN2C(=O)C(Cl)C2c2ccc(Cl)cc2)cc1 (stereo not given)" targetentity="K-562 leukemia" measuredattribute=TGI measurement="> 100 µM"
compound=O=C(c1cc(Cl)cc(Cl)c1)N(C(=O)N1CCN(c2ccccc2)CC1)c1ccccc1 targetentity="K-562 leukemia" measuredattribute=TGI measurement="> 100 µM"
compound=CCOC(=O)NC(=O)c1cn(CC(=O)NCC(=O)NCC(=O)NCCCN2CCN(CCCNC(=O)CNC(=O)CNC(=O)Cn3cc(C(=O)NC(=O)OCC)c(=O)[nH]c3=O)CC2)c(=O)[nH]c1=O targetentity="K-562 leukemia" measuredattribute=TGI measurement="> 100 µM"
compound="CN1C2CCC1CC(CCOC(c1ccc(F)cc1)c1ccc(F)cc1)C2 (stereo not given)" targetentity="K-562 leukemia" measuredattribute=TGI measurement="35.8 µM"
compound=COc1cc(/C=C(\C#N)c2nc3ccccc3o2)ccc1O targetentity="K-562 leukemia" measuredattribute=TGI measurement="> 100 µM"
compound="Cc1cc(Cl)ccc1NC(=O)CCCC(=O)C1CCCC1=O (stereo not given)" targetentity="K-562 leukemia" measuredattribute=TGI measurement="> 100 µM"
compound=CC(=O)C(I(OS(=O)(=O)c1ccc(C)cc1)c1ccccc1)=P(c1ccccc1)(c1ccccc1)c1ccccc1 targetentity="K-562 leukemia" measuredattribute=TGI measurement="> 100 µM"

What value of measured TGI is listed for ClCc1cccc(Cn2cnc3c(NC45CC6CC(CC(C6)C4)C5)ncnc32)c1 ?
29.4 µM

I am curious: what TGI value has been reported for CC1(C)CN=C(c2ccc3c(c2)Cc2cc(C4=NCC(C)(C)N4)ccc2-3)N1 ?
90.4 µM

----------
Tested on: SF-539 CNS
runDescription: NCI tumour cell line growth inhibition, 48 h
measuredAttribute: TGI

Here are 4 compounds together with their reported answers.
compound=CC(C)CS(=O)(=O)/C(=C(\c1ccc(Br)cc1)S(=O)(=O)CC(C)C)c1ccc(Br)cc1 measuredattribute=TGI measurement="> 100 µM"
compound=CCCCOC(=O)NC(=O)c1cn(CCCOC(=O)CCCCCCCCC(=O)OCCCn2cc(C(=O)NC(=O)OCCCC)c(=O)[nH]c2=O)c(=O)[nH]c1=O measuredattribute=TGI measurement="> 100 µM"
compound=O=C(Nc1cccc2ccccc12)Nn1cnnc1 measuredattribute=TGI measurement="> 100 µM"
compound=COc1ccc(-c2onc(-c3ccc([N+](=O)[O-])cc3)c2C2=NCCN2)cc1 measuredattribute=TGI measurement="> 100 µM"

Could you now consider this next compound?
Dear colleague, I am looking for the recorded TGI of the following compound: CC(=O)O[C@@H]1CC[C@@]2(C)C(CC[C@H]3[C@@H]4CC[C@H]([C@H](C)CCc5nc6ccc(C)cc6[nH]5)[C@@]4(C)CC[C@@H]32)C1 (stereo partly specified)
> 100 µM

----------
Attribute: GI50
Test system: ACHN renal
runDescription: NCI tumour cell line growth inhibition, 48 h

Below, 2 molecules whose answers are already recorded.
structuresmiles=O=Cc1ccc(-c2cc(C=O)c(-c3cccs3)[nH]2)s1 measuredattribute=GI50 measurement="78.6 µM"
structuresmiles=Cc1cc(I)cc(CN(C)CCCN2CCSCC2)c1O measuredattribute=GI50 measurement="41 µM"

Consider now this further molecule.
Please give the measured GI50 for this molecule: COc1ccc(/C=N\NC(=O)CN2CCN(c3cc4c(cc3F)c(=O)c(C(=O)N/N=C/c3ccc(OC)c(OC)c3)cn4C3CC3)CC2)cc1OC
> 100 µM

The measured values listed here are drawn from PubChem BioAssay (NCI).
